Source of measurements: PubChem BioAssay (Tox21)

assay_summary: qHTS RealTime-Glo MT Cell Viability Assay in HEK293 cells - 40 hour (AID 1224874); further: on the % scale 0 is the no-effect control and ±100 the full control effect; nearly all actives have a fitted effect of over 50% in size
reported_conditions: RealTime-Glo luminescence; active compounds read low
Inconclusive results are not listed.
measured_metric: max response (%)

1. CN(C1CCCCC1)C1CCCCC1 ... -2.03
2. COc1ccccc1N1CCNCC1 ... -1.42
3. CCCN(CCC)c1c([N+](=O)[O-])cc(C(C)C)cc1[N+](=O)[O-] ... 9.58
4. COc1ccc2c(c1OC)C(=O)O[C@H]2[C@@H]1c2cc3c(cc2CCN1C)OCO3 ... 4.68
5. CC(C)(C)CC(C)(C)c1ccc(O)cc1 ... -17
6. OCCCl ... 0.0487
7. C[C@]12C=CC3=C4CCC(=O)C=C4CC[C@H]3[C@@H]1CC[C@@H]2O ... -25.8
8. CN1CC[C@]23c4c5ccc(O)c4O[C@H]2[C@@H](O)CC[C@H]3[C@H]1C5 ... -1.3
9. O=C(N[C@H]1CN2CCC1CC2)c1ccc2c(c1)OCCO2 ... 0.421
10. O=C1CC[C@@]2(O)[C@H]3Cc4ccc(O)c5c4[C@@]2(CCN3CC2CC2)[C@H]1O5 ... 3.94
11. CCC(C)(C)O ... 6.83
12. C#CC(O)(C=CCl)CC (configuration not stated) ... 10.1

* * *

experimental_target: Retinoic acid receptor RXR-alpha (Homo sapiens)
assay_summary: qHTS assay to identify small molecule agonists of the RXR signaling pathway (AID 1159527); further: nearly all actives have a fitted effect of over 35% in size; further: potency means the concentration at half of the fitted maximal effect
reported_conditions: HEK293T RXRa-UAS-bla, beta-lactamase ratio, 16 h; series mostly up to 76.8 µM
Records with an inconclusive call do not appear. Calls of active or inactive are those of the source. The call rests on the fitted dose curve.
measured_metric: Potency

1) CN(C)C(=O)Nc1cccc(OC(=O)NC(C)(C)C)c1 ... inactive
2) CC(Cl)C(=O)O (stereo not given) ... inactive
3) CCC(C)Cl (stereo not given) ... inactive
4) O=C(Cl)OCCOCCOC(=O)Cl ... 2.19 µM (active)
5) O=C=NC1CCCCC1 ... inactive
6) NNCCO ... inactive
7) C=CCOC(=O)C(C)(C)OC(=O)c1cc(-n2c(=O)cc(C(F)(F)F)n(C)c2=O)ccc1Cl ... inactive
8) CCOP(=O)(SC(C)CC)N1CCSC1=O (stereo not given) ... 11 µM (active)
9) CC(C)(C#N)C(C)(C)C#N ... inactive
10) O=C(Cc1ccccc1)c1ccccc1 ... inactive

* * *

assay_summary: A CellTox Green Cytotoxicity Assay to monitor cytotoxicity in HEK293 cells - 32 hour (AID 1224881); further: nearly all actives have a fitted effect of over 40% in size
reported_conditions: CellTox Green fluorescence; series mostly up to 76.8 µM
Results filed as inconclusive are left out. Calls of active or inactive are those of the source. Calls follow the shape of the dose curve; as a rule, active = well fitted activation curve with a large enough effect in the repeat runs; inconclusive = weak or mixed curves; inactive = flat fitted curve, though single readings scatter.
Outcomes: active, inactive

1) CCCCC(CC)CO[N+](=O)[O-] (centres undefined) ... inactive
2) CCC1CCC(=O)O1 (centres undefined) ... inactive
3) ClCc1ccccc1Cl ... inactive
4) CC(C)(C)c1ccc(CCOc2ncnc3ccccc23)cc1 ... inactive
5) CCOC(=O)c1cncn1C(C)c1ccccc1 (centres undefined) ... inactive
6) COc1cc(CC(C)N)c(OC)cc1Br (centres undefined) ... inactive
7) O=C(O)COc1cc(Cl)c(Cl)cc1Cl ... inactive
8) OC[P+](CO)(CO)CO ... inactive
9) CCCCCCCCCCCCCCCl ... inactive
10) CCOP(=S)(OCC)SCSc1cc(Cl)ccc1Cl ... inactive
11) O=P(OCC(Br)CBr)(OCC(Br)CBr)OCC(Br)CBr (centres undefined) ... inactive
12) Oc1cccc(Cl)c1 ... inactive
13) CCCCCBr ... inactive
14) O=S(=O)(c1ccccc1)c1ccccc1 ... inactive
15) CC(C)(C)N(NC(=O)c1ccc(Cl)cc1)C(=O)c1ccccc1 ... inactive
16) Cc1ccc2c(C)cccc2c1 ... inactive
17) CCCCCCCCP(=O)(O)O ... inactive
18) CC1(C)CC(=O)CC(C)(C)N1[O] ... inactive
19) CCC(C)Cl (centres undefined) ... inactive
20) CC1(C)[C@H](C(=O)O[C@H](C#N)c2cccc(Oc3ccccc3)c2)[C@@H]1C=C(Br)Br ... inactive
21) C=CCc1ccccc1O ... inactive
22) N#CC(C#N)=Cc1ccc(O)c(O)c1 ... inactive
23) CCOP(=S)(OCC)Oc1ccc(S(C)=O)cc1 (centres undefined) ... inactive
24) CC(=O)OC(c1ccccc1)C(Cl)(Cl)Cl (centres undefined) ... active
25) O=C(Cl)OCCOCCOC(=O)Cl ... inactive
26) C[C@@H]1C[C@@H]([C@H](O)CC2CC(=O)NC(=O)C2)C(=O)[C@@H](C)C1 ... inactive
27) NC(=S)c1c(Cl)cccc1Cl ... inactive
28) CCOP(=O)(O)C(N)=O ... inactive
29) C=C(C)C(=O)OCCCCOC(=O)C(=C)C ... inactive
30) O=C(O)C(F)(F)C(F)(F)C(F)(F)C(F)(F)C(F)(F)F ... inactive
31) C[C@H]1O[C@H](OC2[C@@H](O)[C@@H](O)C(O)[C@H](O)[C@H]2O)[C@@H](N)C[C@@H]1N=C(N)C(=O)O (some centres undefined) ... inactive
32) CC(Oc1cc(Cl)c(Cl)cc1Cl)C(=O)O (centres undefined) ... inactive
33) NC(=O)CF ... inactive
34) O=S(=O)(Cl)Cl ... inactive
35) N#CC(C#N)=C(C#N)C#N ... inactive
36) O=C(NC(=O)c1cc(F)c(F)cc1Cl)Nc1cc(F)ccc1N1CCC(C(=O)O)CC1 ... inactive
37) CCCCC#N ... inactive
38) COc1ccc(C(=O)c2c(C)n(CCN3CCOCC3)c3ccccc23)cc1 ... inactive
39) O=C(O)C(Cl)(Cl)Br ... inactive
40) Cc1ccc(N)c(C)c1 ... inactive
41) C#C[C@]1(O)CC[C@H]2[C@@H]3CCC4=CC(=O)CCC4=C3C=C[C@@]21CC ... inactive
42) CC(C)(C)OOC(C)(C)CCC(C)(C)OOC(C)(C)C ... inactive
43) CN[C@@H](C)[C@H](O)c1ccccc1 ... inactive
44) O=C=NC1CCCCC1 ... inactive
45) C=CCSSCC=C ... inactive
46) O=C1CC[C@@]2(O)[C@H]3Cc4ccc(O)c5c4[C@@]2(CCN3CC2CC2)[C@H]1O5 ... inactive
47) CC(O)CN1CCN(CC(=O)[O-])CCN(CC(=O)[O-])CCN(CC(=O)[O-])CC1.[Gd+3] (centres undefined) ... inactive
48) CN1C(=O)CN=C(c2ccccc2)c2cc([N+](=O)[O-])ccc21 ... inactive
49) C[C@]12C=CC3=C4CCC(=O)C=C4CC[C@H]3[C@@H]1CC[C@@H]2O ... inactive
